# System: RIVA
# assay.text: growth inhibition by drug plus 177Lu-lilotomab satetraxetan (1 - RLU/untreated control) (fraction); higher = stronger inhibition
# test.settings: 10 nM; time (day): 3; 177Lu-lilotomab satetraxetan 0.5 ug/ml
Where a name gives a salt, the structure may show the parent alone.
measurement.type: growth inhibition by drug plus 177Lu-lilotomab satetraxetan
Answer field: number only, no words.

Previously resolved entries follow.
molecule	measured.result
CCCCc1nc2cc(/C=C/C(=O)NO)ccc2n1CCN(CC)CC [SB939 (Pracinostat)]	0.656
NC(=O)c1ccc(I)c([N+](=O)[O-])c1 [Iniparib (BSI-201)]	0.437
COc1cccc2c1C(=O)c1c(O)c3c(c(O)c1C2=O)C[C@@](O)(C(C)=O)C[C@@H]3O[C@H]1C[C@H](N)[C@H](O)[C@H](C)O1 [Daunorubicin HCl (Daunomycin HCl)]	0.833
CC(C)CC(=O)Nc1n[nH]c2c1CN(C(=O)C1CCN(C)CC1)C2(C)C	0.403

Form: item CCN[C@H]1C[C@H](C)S(=O)(=O)c2sc(S(N)(=O)=O)cc21 [Dorzolamide HCL] ; test system RIVA; growth inhibition by drug plus 177Lu-lilotomab satetraxetan: 0.311

Given the molecule "CN(C)Cc1c(C(=O)NCCOc2ccc(C(=O)NO)cc2)oc2ccccc12" and test system RIVA, the measured growth inhibition by drug plus 177Lu-lilotomab satetraxetan is 0.524

Reading of growth inhibition by drug plus 177Lu-lilotomab satetraxetan for CN1CCN(CCOc2cc(OC3CCOCC3)c3c(Nc4c(Cl)ccc5c4OCO5)ncnc3c2)CC1 [Saracatinib (AZD0530)] with RIVA: 0.366

---

Recorded growth inhibition by drug alone values for a group of molecules are listed next.
# Tested on: U-2932
# assay.text: growth inhibition by drug alone (1 - RLU/untreated control) (fraction); higher = stronger inhibition
# test.settings: 1000 nM; time (day): 4; 177Lu-lilotomab satetraxetan 0 ug/ml
Structures can show the parent of a compound that is named as a salt.
Could you keep your reply to the number by itself?

# count of solved cases: 8
molecule	measurement.type	measured.result
CCN1CCN(Cc2ccc(-c3cc4c(N[C@H](C)c5ccccc5)ncnc4[nH]3)cc2)CC1	growth inhibition by drug alone	-0.174
C=C1/C(=C\C=C2/CCC[C@]3(C)[C@@H]([C@H](C)/C=C/[C@H](C)C(C)C)CC[C@@H]23)C[C@@H](O)C[C@@H]1O [Doxercalciferol (Hectorol)]	growth inhibition by drug alone	0.132
O=C(NCCS(=O)(=O)c1ccc(C(F)(F)F)cn1)c1ccc(Cl)cc1	growth inhibition by drug alone	0.00465
CS(=O)(=O)c1ccc(C(=O)Nc2ccc(Cl)c(-c3ccccn3)c2)c(Cl)c1 [Vismodegib (GDC-0449)]	growth inhibition by drug alone	0.075
CC(=O)c1c(C)c2cnc(Nc3ccc(N4CCNCC4)cn3)nc2n(C2CCCC2)c1=O	growth inhibition by drug alone	-0.0097
Cc1cc(Nc2cc(N3CCN(C)CC3)nc(Sc3ccc(NC(=O)C4CC4)cc3)n2)n[nH]1 [VX-680 (MK-0457, Tozasertib)]	growth inhibition by drug alone	0.0957
CC[C@@H]1C(=O)N(C)c2cnc(Nc3ccc(C(=O)N[C@H]4CC[C@H](N5CCN(CC6CC6)CC5)CC4)cc3OC)nc2N1C(C)C [BI6727 (Volasertib)]	growth inhibition by drug alone	0.975
O=C(Cc1ccc(-c2ccc(OCCN3CCOCC3)cc2)cn1)NCc1ccccc1	growth inhibition by drug alone	0.971

Recorded result, Cc1ccc(-n2nc(C(C)(C)C)cc2NC(=O)Nc2ccc(OCCN3CCOCC3)c3ccccc23)cc1 [BIRB 796 (Doramapimod)] , growth inhibition by drug alone: 0.272

// COc1cc([C@@H]2c3cc4c(cc3[C@@H](O[C@@H]3O[C@@H]5CO[C@@H](C)O[C@H]5[C@H](O)[C@H]3O)[C@H]3COC(=O)[C@H]23)OCO4)cc(OC)c1O [Etoposide (VP-16)] : growth inhibition by drug alone value = 0.843

Just so you know, measured growth inhibition by drug alone for CO[C@H]1C[C@@H]2CC[C@@H](C)[C@@](O)(O2)C(=O)C(=O)N2CCCC[C@H]2C(=O)O[C@H]([C@H](C)C[C@@H]2CC[C@@H](OCCO)[C@H](OC)C2)CC(=O)[C@H](C)/C=C(\C)[C@@H](O)[C@@H](OC)C(=O)[C@H](C)C[C@H](C)/C=C/C=C/C=C/1C [Everolimus (RAD001)] came out at 0.728

Value of growth inhibition by drug alone reported for the molecule Cc1ccc(NC(=O)c2ccc(CN3CC[C@H](N(C)C)C3)c(C(F)(F)F)c2)cc1Nc1nccc(-c2cncnc2)n1 [Bafetinib (INNO-406)] is -0.0147

Consider CC(=O)O[C@@]12CO[C@@H]1C[C@H](O)[C@@]1(C)C(=O)[C@H](O)C3=C(C)[C@@H](OC(=O)[C@H](O)[C@@H](NC(=O)OC(C)(C)C)c4ccccc4)C[C@@](O)([C@@H](OC(=O)c4ccccc4)[C@H]21)C3(C)C [Docetaxel (Taxotere)] . Its measured growth inhibition by drug alone is 0.972

growth inhibition by drug alone recorded for this molecule, CNNCc1ccc(C(=O)NC(C)C)cc1 [Procarbazine hydrochloride (Matulane)] , is 0.0673

Item: C[C@]1(O)C[C@@H](c2nc(-c3ccc4ccc(-c5ccccc5)nc4c3)c3c(N)nccn32)C1 [Linsitinib (OSI-906)] | growth inhibition by drug alone: -0.0257

response.value for "CC1(COc2ccc3c(c2)ncn3-c2ccc3cccc(N4CCC(N)CC4)c3n2)COC1" (field: growth inhibition by drug alone) = 0.0705

Lab note: measured growth inhibition by drug alone of "COc1ccc2c3n(c(=NC(=O)c4cccnc4)nc2c1OC)CCN3" was 0.128

Recorded growth inhibition by drug alone (molecule "Cc1ccc(C(=O)N(CCCN)[C@@H](c2oc3cc(Cl)ccc3c(=O)c2Cc2ccccc2)C(C)C)cc1" ): 0.97
